# TEST SUMMARY: NCI Yeast Anticancer Drug Screen. Data for the mec2-1 strain (AID 157)
# ASSAY SETUP: S. cerevisiae mec2-1 strain, at 50.0 µM, stronger effect = higher value
About 79,000 compounds went through this panel and 15% of them were active in at least one assay; those are over-represented in the sample as a whole.
MEASUREMENT NAME: growth inhibition (%)
Write the answer as a number in %, unit excluded.

Consider the following illustrative entries.
Form: molecule = Cc1cc2nc(Cl)n(C3OC(CO)C(O)C3O)c2cc1C (configuration not stated) ; growth inhibition = -7.15

Entry O=C(/C=C/c1ccccc1)NCC(O)CO (configuration not stated) , growth inhibition reported as -2.95

Noted for CCCCCCOC(=O)C[n+]1ccc(C(N)=O)cc1 : its growth inhibition reads 17.1

---
Data point: Fc1cccc2c1Cc1ccccc1-2 ; growth inhibition = -8.65

So for CC1(C)CC[C@]2(C(=O)O)[C@H](O)C[C@]3(C)C(=CC[C@@H]4[C@@]5(C)CC[C@H](OC6OC(C(=O)O)C(O)C(O)C6O)C(C)(C)[C@@H]5CC[C@]43C)[C@@H]2C1 (some centres not stated) , the logged growth inhibition turned out to be 95

What the record says about Cc1ccc(S(=O)(=O)Oc2ccccc2C(=O)O)cc1 : growth inhibition is -14.7

Form field growth inhibition, entry CN(/N=C/c1ccc(O)c(/C=N/N(C)c2ccccn2)n1)c1ccccn1 : 8

Lab book: growth inhibition of CCOC(OCC)C(C)(C)OC=O noted as -20.8

====

# TEST SUMMARY: NCI Yeast Anticancer Drug Screen. Data for the cln2 rad14 strain (AID 165);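 further: 0% = growth equal to vehicle treated cultures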
# ASSAY SETUP: S. cerevisiae cln2 rad14 strain, at 50.0 µM
The panel holds about 79,000 compounds, 15% with a hit somewhere; the sample as a whole holds those more often. The source made the active and inactive calls. Cut-off read from the data, not from the text of the source: active = growth inhibition above about 70%; inactive = the rest.
Bench note: report the call from active, inactive

// known answers, use as guide
Identify the outcome logged in this assay for the molecule shown: C[C@@H]1OC2(O)[C@H]3CCCN3S(=O)(=O)CCN2C1=O (stereo partly drawn)
inactive

Status in this test for CCCCCCCC(CCCCCCC)C(=O)OCCO ?
inactive

What did this assay record as the result for CC(=O)Nc1ccc(/C=C(\NC(=O)c2ccccc2)C(=O)NNS(=O)(=O)c2ccc(C)cc2)cc1 ?
inactive

---
// param item: [C-]#[N+]C(=C\c1ccc(O)cc1)/C(=C/c1ccc(O)cc1)[N+]#[C-] ; yields the recorded call
active

Recorded test outcome, item CC(=O)NC1(C)CC[C@H]2CC1C(C)=NC2(C)C (stereo partly drawn)
inactive

For this molecule, state the assay outcome: CCn1c(=O)c2nc(SC)sc2n(-c2ccc(C)cc2)c1=O
inactive

====

# TEST SUMMARY: NCI Yeast Anticancer Drug Screen. Data for the rad50 strain (AID 155);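 further: 0% = growth of vehicle-only cultures of the same strain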
# ASSAY SETUP: S. cerevisiae rad50 strain growth inhibition; at 50.0 µM; stronger effect = higher value
Compounds without any hit were thinned out: in the full panel of roughly 79,000, 15% have a hit.
MEASUREMENT NAME: growth inhibition (%)
Give the value, in units of %, as a plain number.

Looking up CCc1ccc(-c2c(-c3ccccc3)c(-c3ccccc3)c(-c3ccccc3)c(-c3ccccc3)c2-c2ccccc2)cc1 , I see its growth inhibition listed as 31.1

***
Entry under test: COc1ccccc1N1C(Cl)C(=O)C1c1c[nH]c2ccccc12 (stereo unspecified) . Its growth inhibition was 26.9

growth inhibition in this record for CC(C)C(=O)OCCCc1ccccc1 : 11.7
